Data credit: PubChem BioAssay (NCI)

Tested on: NCI-H522 lung
Assay: NCI-60 one-dose screen, 48 h
Settings: 10 µM
Protocol: Growth inhibition of the NCI-H522 human Non-Small Cell Lung tumor cell line is measured as a screen for anti-cancer activity. Cells are grown in 96 well plates and exposed to the test compound for 48 hours. Compounds are tested at a single concentration, which is 10^-5 M for most compounds. The reported endpoint is percent growth (GI% or GIPRCNT), where numbers from 0 - 100% represent growth inhibition, and numbers from -100% - 0 represent cell death. […]
Compounds without any hit were thinned out: in the full panel of roughly 83,000, 20% have a hit. Active and inactive are the calls of the source. How the source made its calls: active means growth percent below 10; inactive means the rest.
Mark one answer only. Choices: active, inactive

**Q:** Look up the recorded call for O=C(Nc1cccc(-n2cc(-c3ccncc3)c(-c3ccc(O)c(Cl)c3)n2)c1)Nc1ccc(Cl)c(Cl)c1 in this test.
**A:** active

**Q:** Ok, now Cn1c(N)c(N=Nc2ccc(S(=O)(=O)Nc3nccs3)cc2)c(=O)n(C)c1=O
**A:** inactive

**Q:** Consider next the molecule COc1ccc(Nc2nc3ccc(NC(=O)NC4CCCCC4)cc3[nH]c2=O)cc1 in the same way.
**A:** inactive

**Q:** Here is the next molecule: N=C(N)c1ccc(-c2ccc(-c3ccccc3)o2)nc1
**A:** inactive

**Q:** Let us now turn to O=C1/C(=C\c2ccc(Cl)cc2)CN(C(=O)c2ccccc2)C/C1=C\c1ccc(Cl)cc1
**A:** inactive

**Q:** Also need CC(C)(C)c1ccc(N2CSC(=S)N(c3ccc(C(C)(C)C)cc3)C2)cc1 , thanks.
**A:** active

**Q:** Cool, now N#CSCC1CC(O)(c2ccccc2)CC(c2ccc(Cl)cc2)O1 (stereo not given)
**A:** active

**Q:** Query COc1ccc(-c2cc(/C=C/C(=O)c3cc(OC)c(OC)c(OC)c3)[nH]n2)cc1OC next
**A:** active

**Q:** Try this molecule next: CCCC#CCN(CC)CC
**A:** inactive

**Q:** Next record, please: COc1cc(-c2nnc(-c3c(-c4ccc(F)cc4)nc4ccccn34)o2)cc(OC)c1OC
**A:** active

**Q:** Would you kindly repeat that for CS(=O)(=O)Nc1ccc(Nc2c3ccccc3nc3cc(N)ccc23)cc1 ?
**A:** active

**Q:** Same thing, different molecule: COc1ccc(-c2nsc3c2NC(=O)CC3c2ccc(F)cc2)cc1 (stereo not given)
**A:** active

**Q:** Ok, now CCCCCCCCN(CCCCCCCC)CCCCCCCCCN1CCCc2cc(OC)ccc21
**A:** inactive

**Q:** Lookup COc1ccc(N2C(=O)C3c4[nH]c5ccc(OCc6ccccc6)cc5c4C4CCC(C(C)C)CC4C3C2=O)cc1 (stereo not given)
**A:** inactive

**Q:** Param item: Cc1ccc(-c2nc(/C=C3/C(=O)N(C)c4ccc(F)cc43)c3ccccn23)cc1
**A:** inactive

**Q:** Repeat for the following molecule: O=C(CC(NC(=O)OCc1ccccc1)C(=O)OCc1ccccc1)OCc1ccccc1 (stereo not given)
**A:** inactive

**Q:** Note, next up: COc1ccc(C2CC(c3ccc(N(C)C)cc3)=NN2c2ccc(S(N)(=O)=O)cc2)cc1 (stereo not given)
**A:** inactive

**Q:** Request: COc1cccc(C(=O)Nc2ccc(CN3CCc4nc5cc(OC)c(OC)cc5cc43)cc2)c1
**A:** inactive

**Q:** Field entry: CC(=O)c1nc2ccccc2n1CCNC(N)=O
**A:** inactive

**Q:** Next record, please: CNc1ncc(-c2ccc(C(F)(F)F)cc2)c(NC2CCCCCC2)n1
**A:** inactive

**Q:** Same lookup for COc1ccc(-c2nc(-c3nc4cc(Cl)c(F)cc4[nH]3)c3ccccn23)cc1 , please.
**A:** inactive

**Q:** Follow-up entry: CCCCCCCCCCCC[n+]1ccc(C(N)=O)cc1
**A:** active

**Q:** Now consider Cc1c(Cl)cccc1NC(=O)c1sc2nc3c(cc2c1N)C(=O)CCC3 and answer again.
**A:** active

**Q:** Next entry: Nc1c(C(=O)Nc2ccccc2Cl)sc2nc3c(cc12)C(=O)CCC3
**A:** inactive

**Q:** Ok, now COc1cc(Cl)cc(-c2nn(-c3cccc(NC(=O)Nc4ccc(Cl)c(C(F)(F)F)c4)c3)cc2-c2ccncc2)c1
**A:** active

**Q:** Next molecule up: S=c1[nH]ccn1-c1c(Cl)cccc1Cl
**A:** inactive

**Q:** Now give it for CC(=O)n1c(-c2ccc(Cl)c(Cl)c2)cn(-c2ccc(Cl)cc2)c1=O too.
**A:** inactive

**Q:** Next entry: CC(C)(C#N)Nc1ccccc1
**A:** inactive

**Q:** Then this molecule: COc1cc(Cc2cc(-c3ccc(Cl)cc3)n[nH]c2=O)ccc1O
**A:** inactive

**Q:** Now consider COc1ccc2nc3ccccc3c(NCCNCC(C)O)c2c1 (stereo not given) .
**A:** active

**Q:** Also check N#CCCN1C/C(=C/c2ccc(Cl)cc2)C(=O)/C(=C/c2ccc(Cl)cc2)C1
**A:** active

**Q:** Another molecule to look at: Cn1c([N+](=O)[O-])cnc1/C=C1\Oc2ccc(Cl)cc2C1=O
**A:** active

**Q:** Next molecule: CN1CCC2(CC1)NC(=O)c1c(c3ccc(Cl)c(Cl)c3n1C)C2C#N (stereo not given)
**A:** inactive

**Q:** Please do the same for COc1ccc(-c2nn(-c3cccc(NC(=O)Nc4cccc(C(F)(F)F)c4)c3)cc2-c2ccncc2)cc1Cl as well.
**A:** active

**Q:** Also CCN(CC)CCNc1ccc(CO)c2oc3cc(Cl)ccc3c(=O)c12 ?
**A:** inactive

**Q:** Request: O=C(Nc1cccc(-n2cc(-c3ccncc3)c(-c3cc(O)cc(Cl)c3)n2)c1)Nc1ccc(Cl)c(C(F)(F)F)c1
**A:** active

**Q:** Record: CCCCN(CCCC)CCCCCCCCC(O)c1cc2ccccc2c2ccccc12 (stereo not given)
**A:** inactive

**Q:** Likewise for O=C(/C(=C/c1ccccc1)CN1CCCCC1)c1ccccc1 ?
**A:** active

**Q:** Then C=C(NC(=O)C(=C)NC(=O)c1csc(C2=NC3c4csc(n4)C4NC(=O)c5csc(n5)C(C(C)(O)C(C)O)NC(=O)C5CSC(=N5)/C(=C/C)NC(=O)C(C(C)O)NC(=O)c5csc(n5)C3(CC2)NC(=O)C(C)NC(=O)C(=C)NC(=O)C(=C)NC(=O)C(C(C)C)NC2C=Cc3c(C(C)O)cc(nc3C2O)C(=O)OC4C)n1)C(N)=O (stereo not given) ?
**A:** active

**Q:** Lookup O=C1N=NC2=C1c1c3ccccc3c(O)n1CC2
**A:** active
